- System: Saccharomyces cerevisiae
- PROCEDURE_DETAILS: protein stability index of tFT-peptide fusion (C-terminal peptide) (PSI (0-1 scale)); higher = more stable (slower turnover)
- TEST_CONDITIONS: genetic background: wild type; temperature: 30 C
Think of 0.7 as a floor: if protein stability index stands on it or above, it is 1 (yes); beneath it, 0 (no).

MACROMOLECULE_SEQUENCE	TESTED_TARGET	CATEGORY
WKKSEKTEHEQI	Saccharomyces cerevisiae	0 (no)
DQSLHAWSLRCT	Saccharomyces cerevisiae	1 (yes)
GMRAGLGRWRSM	Saccharomyces cerevisiae	1 (yes)
PHPLPHASPAPC	Saccharomyces cerevisiae	0 (no)
RGGGSWWCGGDQ	Saccharomyces cerevisiae	1 (yes)
GLCVGVGLVWKL	Saccharomyces cerevisiae	0 (no)
WWKLSGTGWGTL	Saccharomyces cerevisiae	1 (yes)
RSPPAPRFLPAP	Saccharomyces cerevisiae	0 (no)
SLYRSAARHLGI	Saccharomyces cerevisiae	1 (yes)
GVILPVVKARLA	Saccharomyces cerevisiae	0 (no)

* * *

- System: Saccharomyces cerevisiae
- PROCEDURE_DETAILS: protein stability index of tFT-peptide fusion (C-terminal peptide) (PSI (0-1 scale)); higher = more stable (slower turnover)
- TEST_CONDITIONS: genetic background: wild type; temperature: 30 C
Quick reference: protein stability index of the listed items.
OUTCOME_MEASURE: protein stability index

MACROMOLECULE_SEQUENCE	OUTCOME_MEASURE	RECORDED_VALUE
MNHHSDCLLRLW	protein stability index	0.648
SRKEKNEKRSWG	protein stability index	0.674
KPRTLRPDQNAT	protein stability index	0.689
SQSFFDGVLVRV	protein stability index	0.673
RGVGCLIITHSL	protein stability index	0.608
RTSCEQYERGLM	protein stability index	0.673
LSILLFVQFFPP	protein stability index	0.305
GGVGVGVGCGGR	protein stability index	0.683
GLSSGLWAFWWP	protein stability index	0.749
KLNVRATPPPTI	protein stability index	0.7

* * *

# protein stability index values compiled below
- System: Saccharomyces cerevisiae
- PROCEDURE_DETAILS: protein stability index of tFT-peptide fusion (C-terminal peptide) (PSI (0-1 scale)); higher = more stable (slower turnover)
- TEST_CONDITIONS: genetic background: das1 deletion; temperature: 30 C

MACROMOLECULE_SEQUENCE	protein stability index
RKFVFNPPKPRK [CYT1 C-terminal 12 aa]	0.691
SLQKIDATYIRG [SDS22 C-terminal 12 aa]	0.702
TNGLINQFKEWM [PGI1 C-terminal 12 aa]	0.673
VSMKAIFSCMYV [YMR272W-B C-terminal 12 aa]	0.658
GWFEEVRDHKRH [SKY1 C-terminal 12 aa]	0.731
NVIRVWQVMTAN [ASC1 C-terminal 12 aa]	0.576

* * *

- Tested on: Saccharomyces cerevisiae
- PROCEDURE_DETAILS: protein stability index of tFT-peptide fusion (C-terminal peptide) (PSI (0-1 scale)); higher = more stable (slower turnover)
- TEST_CONDITIONS: genetic background: das1 deletion; temperature: 30 C
OUTCOME_MEASURE: protein stability index

MACROMOLECULE_SEQUENCE	RECORDED_VALUE
LCGGEWVVWVKG	0.557
GQSRLVADLRQV	0.646
LSACYSRYVFVS	0.472
LGSYIFVVVIYF	0.168
DAGSSYRFFRFI	0.661
LVLLIQKFLTDK	0.609
LLSFYFVLAYMV	0.32
FPGPPSPPPSYF	0.639
RLFIIYLLNIQG	0.311
WFFRCLFLLSLF	0.517
GLLAFVCISHTS	0.378
QHRAIKIEIKIN	0.571
VLRLVLFVLISV	0.277
IRLCAASFMVVF	0.414
FYLFPSLPLLLL	0.422
TLSRTPVSPSAP	0.637
LWFVIYLLCFFV	0.328
VFVMRDGFLRKV	0.636
CCVFFLLCLSLF	0.341
VWWWGGVGWLMV	0.52
TGPLVHLLCCCV	0.313
AAVQVCVLLLLL	0.341
MRVYLVLWADSC	0.197
FALFCFVIFMSR	0.245
YILRLMMEGICL	0.416
RLIAVAGVVVVA	0.425
PLPSFLYFILLR	0.333
PPTLLPPLHPAP	0.663
CFFGFRAGLFLG	0.593
YVSSFSLVVLLS	0.377
IRSRGLLIRWLS	0.616
FLPLLFFFFFRF	0.391
YFYIRLGIAYMM	0.436
RFLPYLPTPLSP	0.506
GDFYCSSVVLVV	0.332
NVWCWGASCFFC	0.684
DLQTVGLTRFIV	0.621
IRACGCSFLWVC	0.5
GRVCWVVLAGLV	0.441
LSPLSPLLFRLI	0.516
WQILVRLIDFYT	0.345

* * *

- System: Saccharomyces cerevisiae
- PROCEDURE_DETAILS: protein stability index of tFT-peptide fusion (C-terminal peptide) (PSI (0-1 scale)); higher = more stable (slower turnover)
- TEST_CONDITIONS: genetic background: cdc53-1; temperature: 37 C

MACROMOLECULE_SEQUENCE	protein stability index
LILLTFTLRVPV	0.381
PFIPLLLAPALA	0.409
LVFSFFFLFFFM	0.47
VAVFFFCRVFFL	0.339
YPSCPINFICLC	0.699
PHVSALSRDPES	0.728
LCRCPVGVFVLL	0.549
GCCFVCSVFWWG	0.493
VVRAVLCVCASV	0.489
TVRLPLILPCVL	0.573
RCCWWNAQAVWR	0.749
GGYCQMFFLYFR	0.0464
RGGVLYVSIRCK	0.335
FGGFYGRRVLII	0.682
IACVLSIFLNAA	0.435
LVSVLLLFWFLF	0.368
GVCWCVLFVVGC	0.417
RLLSIFKILHVG	0.659
FLPSLSLPLLLF	0.549
NFCVLLQFCVLV	0.477
VIAYSLLSWGDF	0.341
CVCLWCFLVWAR	0.391
FGGYLRAGVFLT	0.697
SLARLRRICFNT	0.685
SFSRLWSLFRCL	0.68
ELDVRPMVFLVA	0.452
VVFVVGAPPVLC	0.481
FPGPPSPPPSYF	0.776
VLRLVLFVLISV	0.348
WLPFFPLSLRGV	0.317
FCICRFLFIFLG	0.463
TYHRSYLLATVV	0.55
KHTGTGNAPNCD	0.729
LVSSYVPFFFAL	0.717
VCNSIPLTPPPA	0.727
LRCRAATSRTVS	0.738
HPPPPPPPPSLS	0.715
YILRLMMEGICL	0.545
PALLLFLRNLLL	0.728
PCVCFIILGMLS	0.515
CFFVSLFFYIDC	0.296
SLVPSIFLFRIF	0.613
RSFNVGLELLVW	0.395
APPSFPPLLLLS	0.697
LRPTFLLLFRPL	0.283
VLLFGLAFFFSF	0.495
LLSYMVSLVVYL	0.231
FACLTPFCLCLT	0.564
LLFLLSPFNFAV	0.726
FCCFFVHMSFFL	0.424
SYFASLLDLFTA	0.77
LVLLIQKFLTDK	0.719
LVLSFVMLVSGH	0.313
ARRGHNCAAVFL	0.743
ACSRKPIWVTWL	0.747
VYWRGLHLQRLL	0.768
FYFMGFFFGLGM	0.627
LLYYQVFKTRRL	0.686
FVGLFEYILLFV	0.167
MSIWKIFIWRLG	0.627
WFLRLVGAVFAL	0.624
VCLRICLVTLMM	0.444
VYRVTGSWLMWV	0.576
PPQDQAPVGVND	0.751
IRLCAASFMVVF	0.55
LSILLFVQFFPP	0.371
VVGVVVCWGCGW	0.555
VLLGYPRILSLF	0.828
PLPSEKAPTLLL	0.735
SVLVWFLVFLVW	0.235
IVRSLFGYLCVV	0.609
ARWRVGLWRGAS	0.749
PPRDPGGLFTPF	0.785
MYESIRILVNKV	0.707
VLFFCLVIYVGV	0.237
VSGITLPFLMFH	0.242
IPRSCRIRLAVL	0.715
GFLWFCGVPVGW	0.738
CSFHFSLFFLRV	0.426
FGVRRSFVVFVV	0.456
VSLLVFVVSSRV	0.418
VYKSTHKIYILT	0.729

* * *

- Test system: Saccharomyces cerevisiae
- PROCEDURE_DETAILS: protein stability index of tFT-peptide fusion (C-terminal peptide) (PSI (0-1 scale)); higher = more stable (slower turnover)
- TEST_CONDITIONS: genetic background: wild type; temperature: 30 C

MACROMOLECULE_SEQUENCE	protein stability index
VFLSCFFVSWVV	0.204
VTRLLLSRIDCY	0.367
IIIGTLLYVNVR	0.215
GGGWGVFVVLWW	0.213
PAPANRPTPRPV	0.626
SFSRLWSLFRCL	0.13
VFLLCLGFLVFS	0.275
VRMVIFSSVYLT	0.26
LRSLLIIYLLIF	0.192
LVPVWVGLRVLF	0.328
GGGGMGRRVGVG	0.398
LPPTPPLSPPPH	0.433
YARFWYSKAFIC	0.115
YSMLGKLVRLVT	0.2
LEGLLIRVYITF	0.173
YCSIQIQLVYGI	0.312
GFLAVTVACVWR	0.145
LCYVLLWLLCRS	0.353
WFALFYFLVSAF	0.187
